We begin with a simple list: items and their reported half-life.
# test method notes: Example 12 pharmacokinetics in healthy subjects: fed, sprinkled on applesauce, fasted
# Assay type: in vivo, human
# assay conditions: both sexes, human, plasma, oral, Sprinkled on Applesauce; Example 7 capsule 350 mg LD/87.5 mg CD; mean ± SD
readout name: half-life

> print(dat)
                                   molecule  readout.value
1  C[C@@](Cc1ccc(O)c(O)c1)(NN)C(=O)O [Carbidopa]         3.95 h
2  N[C@@H](Cc1ccc(O)c(O)c1)C(=O)O [LD, levodopa]         2.02 h

---

# test method notes: Example 12 pharmacokinetics in healthy subjects: fed, sprinkled on applesauce, fasted
# Type: in vivo, human
# assay conditions: both sexes, human, plasma, oral, Sprinkled on Applesauce; hour 0 to 24 hours; Example 7 capsule 350 mg LD/87.5 mg CD; mean ± SD
We begin with a simple list: items and their reported AUC(0-t).
readout name: AUC(0-t) (ng·h/mL)

> print(dat)
                                   molecule  readout.name  unit.tag  readout.value
1  N[C@@H](Cc1ccc(O)c(O)c1)C(=O)O [LD, levodopa]      AUC(0-t)   ng·h/mL           8330
2  C[C@@](Cc1ccc(O)c(O)c1)(NN)C(=O)O [Carbidopa]      AUC(0-t)   ng·h/mL           1910

---

We begin with a simple list: items and their reported AUC(0-t).
# test method notes: Example 12 pharmacokinetics in healthy subjects: fed, sprinkled on applesauce, fasted
# Type: in vivo, human
# assay conditions: both sexes, human, plasma, oral, Fasted; hour 0 to 24 hours; Example 7 capsule 350 mg LD/87.5 mg CD; mean ± SD
readout name: AUC(0-t)

> print(dat)
                                   compound  readout.value
1  C[C@@](Cc1ccc(O)c(O)c1)(NN)C(=O)O [Carbidopa]   2180 ng·h/mL
2  N[C@@H](Cc1ccc(O)c(O)c1)C(=O)O [LD, levodopa]   9120 ng·h/mL

---

# test method notes: Example 12 pharmacokinetics in healthy subjects: fed, sprinkled on applesauce, fasted
# Format: in vivo, human
# assay conditions: both sexes, human, plasma, oral, Fed; Example 7 capsule 350 mg LD/87.5 mg CD; mean ± SD
readout name: half-life

> print(dat)
                       smiles.record  readout.name  readout.value
1  C[C@@](Cc1ccc(O)c(O)c1)(NN)C(=O)O     half-life         3.86 h

---

# test method notes: Example 12 pharmacokinetics in healthy subjects: fed, sprinkled on applesauce, fasted
# Type: in vivo, human
# assay conditions: both sexes, human, plasma, po, Fasted; Example 7 capsule 350 mg LD/87.5 mg CD, single oral dose; mean ± SD
We begin with a simple list: items and their reported Cmax.
readout name: Cmax (µg/mL)

> print(dat)
                                   compound  readout.value
1  C[C@@](Cc1ccc(O)c(O)c1)(NN)C(=O)O [Carbidopa]          0.404
2  N[C@@H](Cc1ccc(O)c(O)c1)C(=O)O [LD, levodopa]           1.83
